Test system: Tyrosine-protein kinase FRK (Homo sapiens); also: in the data inactive means no Kd found up to 30 µM
Sequence (P42685 whole entry): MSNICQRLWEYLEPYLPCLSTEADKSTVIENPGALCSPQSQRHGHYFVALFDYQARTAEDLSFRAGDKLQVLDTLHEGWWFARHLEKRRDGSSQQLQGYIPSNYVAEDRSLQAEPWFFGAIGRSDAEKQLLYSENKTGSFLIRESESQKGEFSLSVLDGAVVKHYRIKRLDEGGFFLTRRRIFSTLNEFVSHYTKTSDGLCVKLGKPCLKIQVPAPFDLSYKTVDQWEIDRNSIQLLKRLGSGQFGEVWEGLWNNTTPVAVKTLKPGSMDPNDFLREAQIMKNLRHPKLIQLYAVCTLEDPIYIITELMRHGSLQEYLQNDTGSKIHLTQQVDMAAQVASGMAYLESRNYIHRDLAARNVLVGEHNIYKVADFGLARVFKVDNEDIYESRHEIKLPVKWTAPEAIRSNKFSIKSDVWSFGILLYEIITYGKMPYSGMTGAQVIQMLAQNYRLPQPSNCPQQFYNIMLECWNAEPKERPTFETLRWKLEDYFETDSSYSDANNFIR
The source made the active and inactive calls.
Outcome codes: YES = active, NO = inactive

# Smiles str, Test system, Group label
records = [
    ("Cn1cc(-c2cnn3c(N)c(Br)c([C@@H]4CCCNC4)nc23)cn1", "Tyrosine-protein kinase FRK (Homo sapiens)", "NO"),
    ("CCNC(=O)C#Cc1ccc2c(c1)NC(=O)/C2=C(\\Nc1ccc(CN(C)C)cc1)c1ccccc1", "Tyrosine-protein kinase FRK (Homo sapiens)", "YES"),
    ("CCCCCCCCCCCCCCCCCCOP(=O)([O-])OC1CC[N+](C)(C)CC1", "Tyrosine-protein kinase FRK (Homo sapiens)", "NO"),
    ("COc1cc([C@@H]2c3cc4c(cc3[C@H](O)[C@H]3COC(=O)[C@@H]23)OCO4)cc(OC)c1OC", "Tyrosine-protein kinase FRK (Homo sapiens)", "NO"),
    ("Cc1nc2cc(-c3nn(C(C)C)c4ncnc(N)c34)ccc2o1", "Tyrosine-protein kinase FRK (Homo sapiens)", "NO"),
    ("O=C(Nc1nc2cccc(-c3ccc(CN4CCS(=O)(=O)CC4)cc3)n2n1)C1CC1", "Tyrosine-protein kinase FRK (Homo sapiens)", "NO"),
    ("CCS(=O)(=O)c1cccc(-c2cc(C(=O)NC3CCN(C)CC3)c(C)c3[nH]c4ncc(C)cc4c23)c1", "Tyrosine-protein kinase FRK (Homo sapiens)", "YES"),
    ("NC1(c2ccc(-c3nc4ccn5c(=O)[nH]nc5c4cc3-c3ccccc3)cc2)CCC1", "Tyrosine-protein kinase FRK (Homo sapiens)", "NO"),
]

These entries and their values trace back to ChEMBL document CHEMBL3991601.
